assay: protein stability index of a GFP-peptide fusion (yeast GPS) (PSI 1-4); higher = more stable; sorted into four equal gates, so the index is relative within each strain
reported-conditions: doa10∆
# binarize protein stability index: threshold 2 inclusive, high side rule met, low side rule not met

{"columns": ["sequence-text", "category"],
 "data": [
  ["HIIQAKADAQREKALNE [RPL19A]", "rule met"],
  ["NNLKNSGNSANNMNVNM [GAL11]", "rule met"],
  ["NNGSKDHGDGILLIDSE [RPN9]", "rule met"],
  ["LQESINHVMYTEVSRKS [ECM29]", "rule met"],
  ["NQNQRNVNETMSRSLAN [SMC3]", "rule met"]
]}

Answer whether protein stability index of AFITQLESSITDAGVLA [YJL039C/NUP192] is greater than or equal to 2.
rule not met

Answer whether protein stability index of IVGKSNVLVTMPVAPTM [YMR129W/POM152] is greater than or equal to 2.
rule met

Answer whether protein stability index of KSGKRKPNIILDEDDTN [RPC31] is greater than or equal to 2.
rule met

Answer whether protein stability index of LFQLLNALTVGDFDKFD [RPN9] is greater than or equal to 2.
rule met

Answer whether protein stability index of NPNPSSQRAQVVTMSVK [RPC37] is greater than or equal to 2.
rule met

Answer whether protein stability index of KELELERKEREDFQKRQ [SWI1] is greater than or equal to 2.
rule met

---

assay: protein stability index of a GFP-peptide fusion (yeast GPS) (PSI 1-4); higher = more stable; sorted into four equal gates, so the index is relative within each strain
reported-conditions: doa10∆
measured-metric: protein stability index
Please reply with the number alone, leaving off any unit.

Please review the entries below; each comes with its answer.
{"columns": ["sequence-text", "protein stability index"],
 "data": [
  ["ETKADGILLETISVPQI [RRP6]", 2.58],
  ["KIKQYERLRFYKDTFTL [RRI1]", 2.78],
  ["NNAVRFSKQCLISNAIY [ECM29]", 1.7]
]}

Field protein stability index (entry FNRLKKQAHEKLDASKK [YIL149C/MLP2] ) reads 2.95

Field protein stability index (entry DFKPPYIYSHVNKVPQN [SWP82] ) reads 2.16

Field protein stability index (entry VLGIKVKIMRDPAKSRT [RPS3] ) reads 2.67

Field protein stability index (entry SDLNLTDRQKKLLGVDM [YLR018C/POM34] ) reads 3.17

Field protein stability index (entry VKQYNKKWPQFYAAVQK [SIN4] ) reads 1.49

Field protein stability index (entry AFGGSATTGGGLFGNKP [YGL172W/NUP49] ) reads 3.26

Field protein stability index (entry HKVQTKLTRELEKKFQD [RPS7A] ) reads 2.43

Field protein stability index (entry QPIEKNGDKMPLKFKLG [YJR042W/NUP85] ) reads 2.74

Field protein stability index (entry TEKKFTKEQYAAESKKY [RPL5] ) reads 3.2

Field protein stability index (entry LVNRKPIPFEFQAVIQK [SNF2] ) reads 2.65

Field protein stability index (entry GSLSGNSSSMEEVMRIA [ESC2] ) reads 2.9

---

assay: protein stability index of a GFP-peptide fusion (yeast GPS) (PSI 1-4); higher = more stable; sorted into four equal gates, so the index is relative within each strain
reported-conditions: ubr1∆
Consider the following sequences and their measured protein stability index readings.
Please reply with the number alone, leaving off any unit.

{"columns": ["sequence-text", "protein stability index"],
 "data": [
  ["YSSVAGTVSRVNRLLSV [RRP4]", 1.8]
]}

Field protein stability index (entry NNCEDFVSRPDRTMLAP [FAS1] ) reads 3.2

Field protein stability index (entry LGGEINDNEDDDEEYDY [BRR2] ) reads 3.43

Field protein stability index (entry LASFEKTTDHLFDAAFY [RPO31] ) reads 3

Field protein stability index (entry ALTVQEVLNRVASRHPS [YDL116W/NUP84] ) reads 3.3
